Exercise: for every item that follows, state its recorded protein stability index.
B1: SCNN1D (parent)
chain: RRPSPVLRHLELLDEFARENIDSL

- Variants of: B1
- protocol.details: protein stability index of a GFP-peptide fusion (GPS, HEK-293T) (PSI 1-6); higher = more stable;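 also: lentivirally expressed fusions sorted by FACS into six bins by GFP to DsRed ratio, PSI derived from sequencing read proportions per bin multiplied by bin number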
- condition.label: c terminus: a fixed tail appended

Illustrative cases are given below, each with its answer.
1. E11I: 1.9
2. L7V: 3.1
3. L7I: 3.1
4. I21R: 2.96
5. R18A: 2.37
6. R8I: 2.37
7. L12Y: 3.56
8. L24Y: 2.55

Could you tell me protein stability index for each of these variants? They are listed below.
1. D22S
2. E19V
3. L13E

-- reply
1: 2.42; 2: 2.88; 3: 4.48

Could you tell me protein stability index for each of these variants? They are listed below.
1. D14Q
2. P5V
3. E15A

-- reply
1: 2.94; 2: 2.43; 3: 2.97

Could you tell me protein stability index for each of these variants? They are listed below.
1. L7R
2. R8N
3. P3Q
4. S4K

-- reply
1: 3.64; 2: 4.34; 3: 1.92; 4: 3.14
